Molecular target: T1, human CD112R antigen protein huCD112R-His (Acro Biosysterm, PVG-H52H4) (human, UniProt Q6DKI7 41-171)
T1 construct: purchased; also called human antigen protein; not shown: His tag
T1 sequence (looked up): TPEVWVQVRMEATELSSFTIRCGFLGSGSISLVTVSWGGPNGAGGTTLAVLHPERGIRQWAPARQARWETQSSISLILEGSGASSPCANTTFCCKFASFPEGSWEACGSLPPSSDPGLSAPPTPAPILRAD
Experiment: SPR (Biacore X100), antibody captured on Protein A chip, huCD112R-His as analyte, 1:1 Langmuir
assayMetric: pKd
Reminder that pKd is minus the log10 of a molar concentration.

C152 (antibody, human IgG1, kappa, V domains shown) VH: QVQLQQSGTILARPGASVKMSCRASDYTFTDYWIQWIKQRPGQGLEWIGAIFPENGDTRYTQKFKGRATLTADKSSSTAYMQVNSLTSEDSAVYYCATFINYVDYWGQGTTLTVSS VL: QIVLIQSPAIMSASPGEKVTMTCSASSSVNNIHWYQQKSGTSPKRWIYDTTKLTSGVPARFSGSGSGTSYSLTISSMEAEDAATYYCQQWNINPYTFGGGTKLEIKR ... 9.56

// next item, pKd requested
Query string: Using known records, supply pKd for C7 (antibody, human IgG1, kappa, V domains shown) VH: EVQLQQSGPELVKPGASVKISCKASGYTLTDYYMNWVKQSHGKSLEWIGDINPNNGGTNFNQKFKGKATLTIDKSSSTTYMELRSLTSEDSAVYYCASLFFDYWGQGTTLTVSS VL: DIVMTQSPSSLSVSAGEKVTMSCKSSQSLLNSGNQKNYLAWYQQKPGQPPKLLIYGASTRESGVPDRFTGSGSGTDFTLTISSVQAEDLALYYCQNAHSSPYTFGGGTKLEIKR
Result string: 10.24
